Listed here are binders together with their documented pKd.
- system.name: GORASP1, Q9BQQ3
- Sequence (Q9BQQ3 1-208): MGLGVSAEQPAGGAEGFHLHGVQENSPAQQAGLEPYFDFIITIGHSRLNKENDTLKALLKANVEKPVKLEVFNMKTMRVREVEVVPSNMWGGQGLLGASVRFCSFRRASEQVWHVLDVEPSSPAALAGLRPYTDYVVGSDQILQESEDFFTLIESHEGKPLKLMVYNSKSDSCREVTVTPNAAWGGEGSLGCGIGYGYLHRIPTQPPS
- protocol.notes: holdup assay
- Parameters: key: below the threshold = too weak to quantify, mostly under pKd 3.1 to 4
- condition.info: plain residues with an end cap or a label only (N-terminal biotin on a linker: ado-ado)

binder: LPHGHSTTRV [NLGN4X, Q8N0W4]
pKd: 3.76
//
binder: YYKRPVQEWV [MMP24, Q9Y5R2]
pKd: 4.9
//
binder: CLREWCDAFL [BANF1, O75531]
pKd: 3.82
//
binder: SAKVRTVTSV [RASL11B, Q9BPW5]
pKd: 3.76
//
binder: QMNQTLPVQV [EPHB3, P54753]
pKd: 3.58
//
binder: HLRARKSEWV [GJD4, Q96KN9]
pKd: 5
//
binder: QHKTQLQTLI [BPIFA2, Q96DR5]
pKd: 3.73
//
binder: LPHPHSTTRV [NLGN2, Q8NFZ4]
pKd: 3.58

Hey, just so you know, these numbers are from paper PMC9482650.
